Kindly state pKi for each of the entries shown.
- target.system: PIM1 (Homo sapiens (Human), UniProt P11309)
- Sequence (P11309 whole entry): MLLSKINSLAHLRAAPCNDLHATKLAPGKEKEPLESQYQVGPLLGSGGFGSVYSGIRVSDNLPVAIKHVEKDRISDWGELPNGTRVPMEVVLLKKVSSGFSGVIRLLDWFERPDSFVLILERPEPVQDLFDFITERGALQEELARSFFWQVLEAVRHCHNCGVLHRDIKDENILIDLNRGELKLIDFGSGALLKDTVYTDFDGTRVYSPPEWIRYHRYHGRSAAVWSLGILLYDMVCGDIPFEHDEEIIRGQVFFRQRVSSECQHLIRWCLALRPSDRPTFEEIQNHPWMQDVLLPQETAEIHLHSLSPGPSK
- assay.remarks: biochemical
- Type: biochemical
- condition.label: 20 pM PIM1, 1 μM FAM-peptide, 10 μM ATP, 90 minutes at room temperature; read-out: PIM1 LC3K (KI)
Value format note: pKi is -log10 of concentration (mol/L); just state the number.

Q: Recorded pKi of COc1ccc(C(F)F)c(F)c1-c1nc(C(=O)Nc2cnn(C)c2[C@@H]2CC[C@@H](N)[C@H](F)CO2)cs1 , please.
A: 8.83

Q: Check Cn1ncc(NC(=O)c2csc(-c3c(F)ccc(F)c3F)n2)c1[C@@H]1CC[C@@H](N)[C@H](F)CO1 too.
A: 10.33

Q: Check CO[C@H]1CO[C@H](c2c(NC(=O)c3csc(-c4c(F)cccc4F)n3)cnn2C)CC[C@H]1N too.
A: 10.18

Q: Check Cn1ncc(NC(=O)c2nc(-c3ccccc3OC(F)(F)F)sc2N)c1[C@@H]1CC[C@@H](N)[C@H](F)CO1 too.
A: 9.02

Q: Check Cn1ncc(NC(=O)c2nc(-c3ccccc3OC(F)(F)F)sc2N)c1[C@@H]1CC[C@@H](N)[C@@H](F)CO1 too.
A: 9.81

Q: Check COc1cccc(-c2nc(C(=O)Nc3cnn(C)c3[C@@H]3CC[C@@H](N)[C@H](F)CO3)cs2)c1F too.
A: 10.44

Q: Check Cn1ncc(NC(=O)c2csc(-c3cccc4cnn(C)c34)n2)c1[C@@H]1CC[C@@H](N)[C@H](F)CO1 too.
A: 8.23

Q: Check Cn1ncc(NC(=O)c2csc(-c3c(F)ccc(S(C)(=O)=O)c3F)n2)c1[C@@H]1CC[C@@H](N)[C@H](F)CO1 too.
A: 8.73

Q: Check C[C@H](O)c1cc(F)c(-c2nc(C(=O)Nc3cnn(C)c3[C@@H]3CC[C@@H](N)[C@H](F)CO3)cs2)c(F)c1 too.
A: 11.10

Q: Check CCc1ccc(F)c(-c2nc(C(=O)Nc3cnn(C)c3[C@@H]3CC[C@@H](N)[C@H](F)CO3)cs2)c1 too.
A: 10.09

Q: Check Cn1ncc(NC(=O)c2csc(-c3c(F)cccc3F)n2)c1[C@H]1CC[C@H](N)[C@H](O)CO1 too.
A: 10.12

Q: Check Cc1cccc(F)c1-c1nc(C(=O)Nc2cnn(C)c2[C@@H]2CC[C@@H](N)[C@@H](F)CO2)c(N)s1 too.
A: 11.15

Q: Check Cn1ncc(NC(=O)c2csc(-c3cncc(F)c3)n2)c1[C@@H]1CC[C@@H](N)[C@H](F)CO1 too.
A: 8.58

Q: Check CO[C@H]1CO[C@H](c2c(NC(=O)c3nc(-c4c(F)cccc4Cl)sc3N)cnn2C)CC[C@H]1N too.
A: 10.85

Q: Check Cn1ncc(NC(=O)c2csc(-c3c(F)cc(C4(O)CC4)cc3F)n2)c1[C@@H]1CC[C@@H](N)[C@H](F)CO1 too.
A: 10.55

Q: Check C[C@H]1O[C@@H](c2c(NC(=O)c3nc(-c4c(F)cccc4F)sc3N)cnn2C)CC(F)(F)[C@@]1(C)N [Example 184] too.
A: 9.32

Q: Check CC(O)c1cc(F)c(-c2nc(C(=O)Nc3cnn(C)c3[C@@H]3CC[C@@H](N)[C@@H](F)CO3)ccc2F)c(F)c1 (stereo partly shown) too.
A: 10.28

Q: Check Cc1noc(C)c1-c1nc(C(=O)Nc2cnn(C)c2[C@@H]2CC[C@@H](N)[C@H](F)CO2)cs1 too.
A: 10.17

Q: Check Cn1ncc(NC(=O)c2csc(-c3c(F)cc(C4(O)CCOC4)cc3F)n2)c1[C@@H]1CC[C@@H](N)[C@H](F)CO1 (stereo partly shown) too.
A: 11.12

Q: Check Cc1c(-c2nc(C(=O)Nc3cnn(C)c3[C@@H]3CC[C@@H](N)[C@H](F)CO3)c(N)s2)cnn1C too.
A: 10.60

Q: Check Cn1ncc(NC(=O)c2nc(-c3c(F)cccc3F)sc2N)c1[C@H]1OC[C@](C)(CN)CO1 too.
A: 10.44

Q: Check COC1(c2cc(F)c(-c3nc(C(=O)Nc4cnn(C)c4[C@@H]4CC[C@@H](N)[C@@H](F)CO4)ccc3F)c(F)c2)COC1 too.
A: 9.92

Q: Check Cn1ncc(NC(=O)c2csc(-c3ccccc3F)n2)c1[C@@H]1CC[C@@H](N)[C@@H](F)CO1 too.
A: 10.01

Q: Check Cn1ncc(NC(=O)c2nc(-c3ccccc3F)sc2N)c1[C@@H]1CC[C@@H](N)[C@@H](F)CO1 too.
A: 11.15

Q: Check Cn1ncc(NC(=O)c2nc(-c3c(F)cccc3F)sc2N)c1C1CC(F)(F)CC(N)CO1 (single isomer, unassigned) [Example 114] too.
A: 10.49

Q: Check Cn1ncc(NC(=O)c2nc(-c3c(F)cccc3F)sc2N)c1C1=CCCCO1 too.
A: 9.39

Q: Check Cn1ncc(NC(=O)c2csc(-n3ncc4ccccc43)n2)c1[C@@H]1CC[C@@H](N)[C@H](F)CO1 too.
A: 10.07

Q: Check CO[C@@H]1CO[C@H](c2c(NC(=O)c3csc(-c4c(F)cc(C)cc4F)n3)cnn2C)CC[C@H]1N too.
A: 10.46
